molecular target: UniProtKB O14786; experiment: Biotinylated-VEGF-A165 (bt-VEGF-A165) binding to NP-1; conditions: 30 μM compound, read-out: Screen (% inhibition at 30 μM)
# inhibition at 30 µM per entry
Measured attribute: inhibition at 30 µM (%)

| Given smiles | Measured attribute | U | Assay value |
| --- | --- | --- | --- |
| N=C(N)NCCC[C@H](NC(=O)c1sccc1NS(=O)(=O)c1cc(-c2cccc(CN3CCN(c4ccccn4)CC3)c2)cc2c1OCC2)C(=O)O | inhibition at 30 µM | % | 97 |
| Cc1cc(CNc2nc(CNc3cccc(S(=O)(=O)Nc4ccsc4C(=O)N[C@@H](CCCNC(=N)N)C(=O)O)c3)cs2)no1 | inhibition at 30 µM | % | 90 |
| N=C(N)NCCC[C@H](NC(=O)c1sccc1NS(=O)(=O)c1cc(-c2cccc(CNCCO)c2)cc2c1OCC2)C(=O)O | inhibition at 30 µM | % | 96 |
| N#Cc1cccc(NC(=O)CNc2cccc(S(=O)(=O)Nc3ccsc3C(=O)N[C@@H](CCCNC(=N)N)C(=O)O)c2)c1 | inhibition at 30 µM | % | 63 |
| N=C(N)NCCC[C@H](NC(=O)c1sccc1NS(=O)(=O)c1cc(-c2cccc(CN3CCN(Cc4ccncc4)CC3)c2)cc2c1OCC2)C(=O)O | inhibition at 30 µM | % | 100 |
| N=C(N)NCCC[C@H](NC(=O)c1sccc1NS(=O)(=O)c1cc(-c2cccc(CNCc3ccccn3)c2)cc2c1OCC2)C(=O)O | inhibition at 30 µM | % | 99 |
| N=C(N)NCCC[C@H](NC(=O)c1sccc1NS(=O)(=O)c1cc(-c2ccccc2CN2CCN(Cc3ccccn3)CC2)cc2c1OCC2)C(=O)O | inhibition at 30 µM | % | 95 |
| COC(=O)C1CCN(Cc2ccccc2-c2cc3c(c(S(=O)(=O)Nc4ccsc4C(=O)N[C@@H](CCCNC(=N)N)C(=O)O)c2)OCC3)CC1 | inhibition at 30 µM | % | 100 |
| N=C(N)NCCC[C@H](NC(=O)c1sccc1NS(=O)(=O)c1cc(-c2cccc(CNCc3cccnc3)c2)cc2c1OCC2)C(=O)O | inhibition at 30 µM | % | 96 |
| N=C(N)NCCC[C@H](NC(=O)c1sccc1NS(=O)(=O)c1cccc(NCc2csc(N3CCN(Cc4cccnc4)CC3)n2)c1)C(=O)O | inhibition at 30 µM | % | 94 |
| N=C(N)NCCC[C@H](NC(=O)c1sccc1NS(=O)(=O)c1cccc(NCc2csc(N3CCN(c4ncccn4)CC3)n2)c1)C(=O)O | inhibition at 30 µM | % | 93 |
| N=C(N)NCCC[C@H](NC(=O)c1sccc1NS(=O)(=O)c1cccc(NCc2csc(N3CCN(c4ccncc4)CC3)n2)c1)C(=O)O | inhibition at 30 µM | % | 99 |
| N=C(N)NCCC[C@H](NC(=O)c1sccc1NS(=O)(=O)c1cc(-c2ccccc2CNCc2ncc[nH]2)cc2c1OCC2)C(=O)O | inhibition at 30 µM | % | 100 |

----------
biological target: NP-1 (Homo sapiens); test: Biotinylated-VEGF-A165 (bt-VEGF-A165) binding to NP-1; conditions: 3 μM compound, read-out: Screen (% inhibition at 3 μM)
Sequence (O14786 22-923): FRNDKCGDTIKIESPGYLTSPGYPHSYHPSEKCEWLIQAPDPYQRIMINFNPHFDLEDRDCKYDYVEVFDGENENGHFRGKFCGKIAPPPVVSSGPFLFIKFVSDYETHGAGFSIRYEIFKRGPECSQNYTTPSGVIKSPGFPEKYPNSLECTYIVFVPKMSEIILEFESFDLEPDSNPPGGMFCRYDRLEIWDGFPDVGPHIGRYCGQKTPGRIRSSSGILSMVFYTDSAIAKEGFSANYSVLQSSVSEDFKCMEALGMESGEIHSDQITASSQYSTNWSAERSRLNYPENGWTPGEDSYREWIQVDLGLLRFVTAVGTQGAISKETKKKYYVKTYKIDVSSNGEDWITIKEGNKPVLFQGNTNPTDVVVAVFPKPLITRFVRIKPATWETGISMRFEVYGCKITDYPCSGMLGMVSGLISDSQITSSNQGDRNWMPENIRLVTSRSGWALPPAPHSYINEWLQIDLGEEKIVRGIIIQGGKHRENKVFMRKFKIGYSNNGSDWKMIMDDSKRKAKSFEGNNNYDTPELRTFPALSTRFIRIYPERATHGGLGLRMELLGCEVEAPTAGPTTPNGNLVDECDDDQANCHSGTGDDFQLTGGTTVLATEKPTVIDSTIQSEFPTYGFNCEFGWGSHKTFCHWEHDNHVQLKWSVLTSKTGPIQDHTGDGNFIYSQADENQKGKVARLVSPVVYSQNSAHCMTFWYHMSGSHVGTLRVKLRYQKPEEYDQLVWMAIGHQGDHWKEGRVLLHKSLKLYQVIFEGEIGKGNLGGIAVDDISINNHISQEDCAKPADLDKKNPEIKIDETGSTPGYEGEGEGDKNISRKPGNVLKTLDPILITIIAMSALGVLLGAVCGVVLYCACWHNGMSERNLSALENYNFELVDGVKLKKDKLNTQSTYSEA
condition met means recorded inhibition at 3 µM is 80% or above; condition not met means it is below 80%.

| Molecule | Experimental target | Group label |
| --- | --- | --- |
| N=C(N)NCCC[C@H](NC(=O)c1sccc1NS(=O)(=O)c1cc(-c2ccccc2CN2CCC(N)CC2)cc2c1OCC2)C(=O)O [Compound 21] | NP-1 (Homo sapiens) | condition not met |
| COC(=O)C1CCN(Cc2cccc(-c3cc4c(c(S(=O)(=O)Nc5ccsc5C(=O)N[C@@H](CCCNC(=N)N)C(=O)O)c3)OCC4)c2)CC1 [Compound 7] | NP-1 (Homo sapiens) | condition met |
| N=C(N)NCCC[C@H](NC(=O)c1sccc1NS(=O)(=O)c1cc(-c2ccccc2CN2CCN(c3ccccn3)CC2)cc2c1OCC2)C(=O)O [Compound 14] | NP-1 (Homo sapiens) | condition not met |
| N=C(N)NCCC[C@H](NC(=O)c1sccc1NS(=O)(=O)c1cc(-c2cccc(CN3CCC(C(=O)O)CC3)c2)cc2c1OCC2)C(=O)O [Compound 3] | NP-1 (Homo sapiens) | condition met |
| Cc1cc(CNc2nc(CNc3cccc(S(=O)(=O)Nc4ccsc4C(=O)N[C@@H](CCCNC(=N)N)C(=O)O)c3)cs2)no1 [Compound 67] | NP-1 (Homo sapiens) | condition not met |
| N=C(N)NCCC[C@H](NC(=O)c1sccc1NS(=O)(=O)c1cc(-c2cccc(CN3CCC(N)CC3)c2)cc2c1OCC2)C(=O)O [Compound 34] | NP-1 (Homo sapiens) | condition not met |
| N=C(N)NCCC[C@H](NC(=O)c1sccc1NS(=O)(=O)c1cc(-c2ccccc2CNCc2ncc[nH]2)cc2c1OCC2)C(=O)O [Compound 24] | NP-1 (Homo sapiens) | condition not met |
| N=C(N)NCCC[C@H](NC(=O)c1sccc1NS(=O)(=O)c1cccc(NCc2csc(N3CCN(c4ccccn4)CC3)n2)c1)C(=O)O [Compound 63] | NP-1 (Homo sapiens) | condition not met |
| N=C(N)NCCC[C@H](NC(=O)c1sccc1NS(=O)(=O)c1cc(-c2cccc(CNCCO)c2)cc2c1OCC2)C(=O)O [Compound 35] | NP-1 (Homo sapiens) | condition not met |
| N=C(N)NCCC[C@H](NC(=O)c1sccc1NS(=O)(=O)c1cc(-c2ccccc2CN2CCC(C(=O)O)CC2)cc2c1OCC2)C(=O)O [Compound 1] | NP-1 (Homo sapiens) | condition met |
| N=C(N)NCCC[C@H](NC(=O)c1sccc1NS(=O)(=O)c1cc(-c2cccc(CN3CCN(c4ccccn4)CC3)c2)cc2c1OCC2)C(=O)O [Compound 27] | NP-1 (Homo sapiens) | condition met |
